Taken from ChEMBL document CHEMBL2346642.

I'd be grateful if you could share measured IC50 for these entries.
System: Radical scavenging activity
Test: Antioxidant activity assessed as DPPH radical scavenging activity by UV-vis spectrophotometry analysis
Type: functional

// IC50 lookup, key: COc1cc(O[C@@H]2O[C@H](CO)[C@@H](OC)[C@H](O)[C@H]2O)c(CC=C(C)C)c(O)c1C(=O)/C=C/c1ccc(O)cc1
9060 nM

Query (compound): COc1cc(O[C@@H]2O[C@H](CO)[C@@H](O)[C@H](O)[C@H]2O)c(CC=C(C)C)c(O)c1C(=O)/C=C/c1ccc(O)cc1 [XANTHOHUMOL-4'-O-BETA-D-GLUCOPYRANOSIDE] ; field requested: IC50
770 nM

Recorded IC50 for COc1cc(O[C@@H]2O[C@H](CO)[C@@H](O)[C@H](O)[C@H]2O)c(CC=C(C)C)c2c1C(=O)C[C@@H](c1ccc(O)cc1)O2 , please?
6130 nM

For the compound COc1cc(O)c(CC=C(C)C)c(O)c1C(=O)/C=C/c1ccc(O)cc1 , what IC50 is on record?
1980 nM

I am curious: what IC50 value has been reported for O=C1O[C@H]([C@@H](O)CO)C(O)=C1O ?
520 nM
